Target: CDK6/D3 (Homo sapiens, UniProt Q00534)
Sequence (Q00534 whole entry, species assumed): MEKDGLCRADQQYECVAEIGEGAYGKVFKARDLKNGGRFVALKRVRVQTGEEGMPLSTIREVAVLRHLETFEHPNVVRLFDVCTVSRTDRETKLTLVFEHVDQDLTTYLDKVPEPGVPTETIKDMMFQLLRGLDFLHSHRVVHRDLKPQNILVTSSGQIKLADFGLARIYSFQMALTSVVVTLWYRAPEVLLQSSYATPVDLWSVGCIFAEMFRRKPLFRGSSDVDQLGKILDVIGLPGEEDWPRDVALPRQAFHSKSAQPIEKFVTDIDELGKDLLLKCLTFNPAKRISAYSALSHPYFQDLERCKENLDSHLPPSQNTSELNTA
Sequence (P30281 whole entry partner, species assumed): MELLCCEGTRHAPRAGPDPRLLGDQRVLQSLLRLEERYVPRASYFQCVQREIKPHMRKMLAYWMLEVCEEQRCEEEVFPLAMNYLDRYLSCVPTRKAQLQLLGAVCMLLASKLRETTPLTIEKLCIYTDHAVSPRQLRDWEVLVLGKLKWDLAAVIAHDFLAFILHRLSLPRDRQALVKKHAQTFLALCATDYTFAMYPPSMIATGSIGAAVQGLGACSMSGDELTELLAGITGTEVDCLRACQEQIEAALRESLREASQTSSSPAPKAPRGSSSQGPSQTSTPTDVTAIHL
Assay: ADP Glo kinase assay, CDK6/D3
Assay type: biochemical
Details: CDK6D3; compound at 10 μM; read-out: residual enzymatic activity (%) at 10 μM
Documented remaining activity at 10 µM across a set of compounds

{"compound": "CC(=O)N1CCN(c2ccc(Nc3nccc(-c4cnc5ccc(-c6cc7ccccc7s6)cn45)n3)nc2)CC1 [Cmpd 22]", "remaining activity at 10 µM, %": 102}
{"compound": "CC(=O)N1CCN(c2ccc(Nc3nccc(-c4cnc5ccc(-c6cncnc6)cn45)n3)nc2)CC1 [Cmpd 16]", "remaining activity at 10 µM, %": 99}
{"compound": "CC(=O)N1CCN(c2ccc(Nc3nccc(-c4cnc5ccc(-c6cccs6)cn45)n3)nc2)CC1 [Cmpd 17]", "remaining activity at 10 µM, %": 76}
{"compound": "CC(=O)N1CCN(c2ccc(Nc3nccc(-c4cnc5ccc(-c6cc7ccccc7o6)cn45)n3)nc2)CC1 [Cmpd 21]", "remaining activity at 10 µM, %": 102}

###

Documented remaining activity at 10 µM across a set of molecules
Molecular target: CDK4/D1 (Homo sapiens, UniProt P11802)
Sequence (P11802 whole entry, species assumed): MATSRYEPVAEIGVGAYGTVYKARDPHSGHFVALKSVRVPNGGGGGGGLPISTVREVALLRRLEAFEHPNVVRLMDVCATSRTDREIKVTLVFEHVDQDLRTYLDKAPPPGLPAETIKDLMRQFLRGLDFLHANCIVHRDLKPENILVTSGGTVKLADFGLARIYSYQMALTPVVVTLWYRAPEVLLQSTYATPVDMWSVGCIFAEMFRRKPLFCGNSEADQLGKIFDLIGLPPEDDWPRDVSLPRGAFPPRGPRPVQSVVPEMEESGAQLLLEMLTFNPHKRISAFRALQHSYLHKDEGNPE
Sequence (P24385 whole entry partner, species assumed): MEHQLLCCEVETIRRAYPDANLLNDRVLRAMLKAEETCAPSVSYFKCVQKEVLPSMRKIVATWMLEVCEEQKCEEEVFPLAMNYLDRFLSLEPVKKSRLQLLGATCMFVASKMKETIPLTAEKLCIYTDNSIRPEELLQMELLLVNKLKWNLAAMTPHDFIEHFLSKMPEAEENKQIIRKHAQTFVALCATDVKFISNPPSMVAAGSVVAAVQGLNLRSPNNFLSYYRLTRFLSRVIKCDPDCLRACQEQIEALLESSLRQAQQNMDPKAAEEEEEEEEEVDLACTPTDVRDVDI
Assay: ADP Glo kinase assay, CDK4/D1
Type: biochemical
Conditions: CDK4D1; compound at 10 μM; read-out: residual enzymatic activity (%) at 10 μM
readout_name: remaining activity at 10 µM (%)

{"smiles_data": "CC(=O)N1CCN(c2ccc(Nc3nccc(-c4cnc5ccc(-c6ccccc6)cn45)n3)nc2)CC1", "readout_name": "remaining activity at 10 µM", "measured_value": 69}
{"smiles_data": "CC(=O)N1CCN(c2ccc(Nc3nccc(-c4cnc5ccc(-c6cc7ccccc7s6)cn45)n3)nc2)CC1", "readout_name": "remaining activity at 10 µM", "measured_value": 64}
{"smiles_data": "CC(=O)N1CCN(c2ccc(Nc3nccc(-c4cnc5ccc(-c6cnc(N7CCN(C)CC7)nc6)cn45)n3)nc2)CC1", "readout_name": "remaining activity at 10 µM", "measured_value": 70}
{"smiles_data": "c1ccn2c(-c3ccnc(Nc4ccc(N5CCCCC5)cn4)n3)cnc2c1", "readout_name": "remaining activity at 10 µM", "measured_value": 53}
{"smiles_data": "CC(=O)N1CCN(c2ccc(Nc3nccc(-c4cnc5ccc(-c6ccco6)cn45)n3)nc2)CC1", "readout_name": "remaining activity at 10 µM", "measured_value": 93}
{"smiles_data": "CC(=O)N1CCN(c2ccc(Nc3nccc(-c4cnc5ccc(Br)cn45)n3)nc2)CC1", "readout_name": "remaining activity at 10 µM", "measured_value": 34}
{"smiles_data": "CC(=O)N1CCN(c2ccc(Nc3nccc(-c4cnc5ccc(F)cn45)n3)nc2)CC1", "readout_name": "remaining activity at 10 µM", "measured_value": 27}
{"smiles_data": "CC(=O)N1CCN(c2ccc(Nc3nccc(-c4cnc5ccc(-c6cncnc6)cn45)n3)nc2)CC1", "readout_name": "remaining activity at 10 µM", "measured_value": 78}
{"smiles_data": "CC(=O)N1CCN(c2ccc(Nc3nccc(-c4cnc5ccc(-c6cn[nH]c6)cn45)n3)nc2)CC1", "readout_name": "remaining activity at 10 µM", "measured_value": 66}
{"smiles_data": "CC(=O)N1CCN(c2ccc(Nc3nccc(-c4cnc5ccc(C(F)(F)F)cn45)n3)nc2)CC1", "readout_name": "remaining activity at 10 µM", "measured_value": 46}
